assay target: Mu-type opioid receptor (Homo sapiens)
experimental protocol: Agonist activity at MOR (unknown origin) assessed as cAMP accumulation at 50 nM relative to control
Type: functional
experimental readout: Activity
Show the value, then the unit it is measured in.

Below, 6 compounds whose answers are already recorded.
compound | Activity
CC(Cc1ccco1)N/C(=N\C#N)NC[C@H](Cc1ccccc1)N(C)C (stereo not given in full) | 15.6%
CC(Cc1ccc[nH]1)N/C(=N\C#N)NC[C@H](Cc1ccccc1)N(C)C (stereo not given in full) | 24.3%
CC(Cc1ccncc1)N/C(=N\C#N)NC[C@H](Cc1ccccc1)N(C)C (stereo not given in full) | 8.6%
CN(C)[C@H](CN/C(=N/C#N)NCCc1ccccc1)Cc1ccc(O)cc1 | 4.1%
CN(C)[C@H](CN/C(=N/C#N)NCCc1cccc(F)c1)Cc1ccccc1 | 14.4%
COc1ccccc1N/C(=N\C#N)NC[C@H](Cc1ccccc1)N(C)C | 36.9%

Query: Please state recorded Activity (tested on Mu-type opioid receptor (Homo sapiens)) of CC(Cc1cc[nH]n1)N/C(=N\C#N)NC[C@H](Cc1ccccc1)N(C)C (stereo not given in full)
Result: -15.2%

Query: Please state recorded Activity (tested on Mu-type opioid receptor (Homo sapiens)) of "CN(C)[C@H](CN/C(=N/C#N)Nc1ccccc1)Cc1ccccc1"
Result: 23.1%

Query: Please state recorded Activity (tested on Mu-type opioid receptor (Homo sapiens)) of "CN(C)[C@H](CN/C(=N/C#N)NCCc1ccc(O)cc1)Cc1ccccc1"
Result: 19.3%

Query: Please state recorded Activity (tested on Mu-type opioid receptor (Homo sapiens)) of CC(Cc1c[nH]c2ccccc12)N/C(=N\C#N)NC[C@H](Cc1ccccc1)N(C)C (stereo not given in full)
Result: 17.7%
